Biological target: c-Src SH2;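 further: peptide library displayed on the E. coli surface as eCPX fusions, selected cells deep-sequenced, score is each peptide's frequency after selection divided by its frequency in the input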
Assay: SH2 binding enrichment of the phosphorylated peptide, bacterial display (enrichment ratio); higher = better substrate or ligand; peptides without Tyr show the background
Please use Fulfilled whenever SH2 binding enrichment is not below 0.7, and Not fulfilled whenever it is.

[
  {
    "SEQUENCE ENTRY": "FVKEPYIQSRF [HIPK4_Y175_YF]",
    "ASSIGNED CLASS": "Not fulfilled"
  },
  {
    "SEQUENCE ENTRY": "CCNHPYRINGA [CHD7_Y1256_L1257R]",
    "ASSIGNED CLASS": "Not fulfilled"
  },
  {
    "SEQUENCE ENTRY": "NNKKDYFDMFE [SLC26A3_Y526_K521N_YF]",
    "ASSIGNED CLASS": "Not fulfilled"
  },
  {
    "SEQUENCE ENTRY": "GITVTYTIPKK [UBA5_Y372_A371T]",
    "ASSIGNED CLASS": "Fulfilled"
  },
  {
    "SEQUENCE ENTRY": "FAELVYTGFWH [ASS1_Y322]",
    "ASSIGNED CLASS": "Not fulfilled"
  },
  {
    "SEQUENCE ENTRY": "ADGLEYSRTGL [MMUT_Y287]",
    "ASSIGNED CLASS": "Not fulfilled"
  },
  {
    "SEQUENCE ENTRY": "ELTTCYRKKCC [CCBE1_Y70]",
    "ASSIGNED CLASS": "Fulfilled"
  },
  {
    "SEQUENCE ENTRY": "KDQPDYKFQPR [SOX9_Y172_H169Q_YF]",
    "ASSIGNED CLASS": "Not fulfilled"
  },
  {
    "SEQUENCE ENTRY": "FRASFYRKGGC [ALK_Y1283_YF]",
    "ASSIGNED CLASS": "Not fulfilled"
  },
  {
    "SEQUENCE ENTRY": "CEHRGSLYLAI [TEK_Y897_Y897S]",
    "ASSIGNED CLASS": "Not fulfilled"
  },
  {
    "SEQUENCE ENTRY": "HAEERYGKELV [PSTPIP1_Y53_Q48H]",
    "ASSIGNED CLASS": "Not fulfilled"
  },
  {
    "SEQUENCE ENTRY": "KPGVNYYFQVS",
    "ASSIGNED CLASS": "Fulfilled"
  },
  {
    "SEQUENCE ENTRY": "KNEKVYTRHGV [FLOT1_Y56_S52N]",
    "ASSIGNED CLASS": "Not fulfilled"
  },
  {
    "SEQUENCE ENTRY": "IIQRAYRRHLL [SCN1A_Y1926]",
    "ASSIGNED CLASS": "Not fulfilled"
  },
  {
    "SEQUENCE ENTRY": "GLRYGYGVLGG [KRTAP20-2_Y15]",
    "ASSIGNED CLASS": "Fulfilled"
  },
  {
    "SEQUENCE ENTRY": "SSFSRYIMMPN [LEF1_Y114_G113R_YF]",
    "ASSIGNED CLASS": "Fulfilled"
  },
  {
    "SEQUENCE ENTRY": "FVSIVCNDSGE [TSC2_Y1650_Y1650C]",
    "ASSIGNED CLASS": "Not fulfilled"
  },
  {
    "SEQUENCE ENTRY": "PGGNIYISPLK [RB1_Y805]",
    "ASSIGNED CLASS": "Fulfilled"
  },
  {
    "SEQUENCE ENTRY": "TWEKPYECVQC [ZNF24_Y335_G331W]",
    "ASSIGNED CLASS": "Fulfilled"
  },
  {
    "SEQUENCE ENTRY": "IGEVVYQRAVM [GRIN2A_Y502]",
    "ASSIGNED CLASS": "Not fulfilled"
  },
  {
    "SEQUENCE ENTRY": "TMKSRYMELYD [BBS2_Y644]",
    "ASSIGNED CLASS": "Fulfilled"
  },
  {
    "SEQUENCE ENTRY": "HNGVSYYINLC [IGF2R_Y2024]",
    "ASSIGNED CLASS": "Not fulfilled"
  },
  {
    "SEQUENCE ENTRY": "STEEQYRICQV [EFHC1_Y115_R118C]",
    "ASSIGNED CLASS": "Not fulfilled"
  },
  {
    "SEQUENCE ENTRY": "RLRKYHLGKYL [KLB_Y906_Y906H]",
    "ASSIGNED CLASS": "Not fulfilled"
  },
  {
    "SEQUENCE ENTRY": "FVPSFYHAFSG [ACTN4_Y265_S262P_YF]",
    "ASSIGNED CLASS": "Fulfilled"
  },
  {
    "SEQUENCE ENTRY": "WHFTFYNELRV [ACTC1_Y93_H90Y_YF]",
    "ASSIGNED CLASS": "Not fulfilled"
  },
  {
    "SEQUENCE ENTRY": "FTFNSYFMHWV [IGHV1-46_Y51_T49N_YF]",
    "ASSIGNED CLASS": "Fulfilled"
  },
  {
    "SEQUENCE ENTRY": "KLRMESLSLMH [NCKIPSD_Y660_Y660S]",
    "ASSIGNED CLASS": "Fulfilled"
  },
  {
    "SEQUENCE ENTRY": "RRYVYYYSYLL [PTEN_Y177]",
    "ASSIGNED CLASS": "Not fulfilled"
  },
  {
    "SEQUENCE ENTRY": "GVMLLYYGRYN [ADGRD1_Y85_T82M]",
    "ASSIGNED CLASS": "Fulfilled"
  },
  {
    "SEQUENCE ENTRY": "GRTNICKNKKD [SLC26A3_Y520_Y520C]",
    "ASSIGNED CLASS": "Fulfilled"
  },
  {
    "SEQUENCE ENTRY": "SNKELYEKYMI",
    "ASSIGNED CLASS": "Not fulfilled"
  },
  {
    "SEQUENCE ENTRY": "ETSHNYHKFDS [MATR3_Y243]",
    "ASSIGNED CLASS": "Fulfilled"
  },
  {
    "SEQUENCE ENTRY": "GFSDPYVKAFL [SYT3_Y470_S474F]",
    "ASSIGNED CLASS": "Not fulfilled"
  },
  {
    "SEQUENCE ENTRY": "GLGGVYGGASG [KRT8_Y54_G53V]",
    "ASSIGNED CLASS": "Not fulfilled"
  },
  {
    "SEQUENCE ENTRY": "YGPPQYNIQYS [ERBB2IP_Y977]",
    "ASSIGNED CLASS": "Not fulfilled"
  },
  {
    "SEQUENCE ENTRY": "KRLYAYKMLMA [TMC2_Y209_Q205R]",
    "ASSIGNED CLASS": "Fulfilled"
  }
]
